Assay: Displacement of [3H]SCH23390 from dopamine D1 like receptor in rat brain homogenates
Assay type: tissue-based
Parameter measured: Ki (µM)

// known answers, use as guide
INSERT INTO measurements (smiles_repr, endpoint_value) VALUES
  ('CCCN(CC[C@H]1CC[C@H](NS(=O)(=O)c2ccc(Cl)nc2)CC1)[C@H]1CCc2nc(N)sc2C1', 8.19),
  ('CCCN(CC[C@H]1CC[C@H](NS(=O)(=O)c2cccc(F)c2)CC1)[C@H]1CCc2nc(N)sc2C1', 10.4),
  ('CCCN(CC[C@H]1CC[C@H](NC(=O)c2ccc(-n3cccn3)cc2)CC1)[C@H]1CCc2nc(N)sc2C1', 14.4),
  ('CCCN(CC[C@H]1CC[C@H](NC(=O)c2ccc(-c3noc(C4CC4)n3)cc2)CC1)[C@H]1CCc2nc(N)sc2C1', 11.4);

a: CCCN(CC[C@H]1CC[C@H](NC(=O)c2ccccc2-n2cccn2)CC1)[C@H]1CCc2nc(N)sc2C1
b: CCCN(CC[C@H]1CC[C@H](NC(=O)c2cccc(-c3noc(C)n3)c2)CC1)[C@H]1CCc2nc(N)sc2C1
c: CCCN(CC[C@H]1CC[C@H](NS(=O)(=O)c2ccc(-c3ccccc3)cc2)CC1)[C@H]1CCc2nc(N)sc2C1
d: CCCN(CC[C@H]1CC[C@H](NS(=O)(=O)c2cccc3ccccc23)CC1)[C@H]1CCc2nc(N)sc2C1
e: CCCN(CC[C@H]1CC[C@H](NS(=O)(=O)c2cccnc2Cl)CC1)[C@H]1CCc2nc(N)sc2C1
Ask: Please put the entries in order of rising Ki. Returns: the labels arranged in the requested order.
Result: c, d, b, e, a
(c: 1.8 µM, d: 4.67 µM, b: 9.94 µM, e: 17.4 µM, a: 46.9 µM)

----------
Assay: Displacement of [3H]SCH23390 from dopamine D1 like receptor in rat brain homogenates
Format: tissue-based
pKi: −log10 of the molar value.
Parameter measured: pKi

INSERT INTO results (smiles_repr, parameter_measured, endpoint_value) VALUES
  ('CCCN(CC[C@H]1CC[C@H](NS(=O)(=O)c2ccccc2)CC1)[C@H]1CCc2nc(N)sc2C1', 'pKi', 4.63);

A: CCCN(CC[C@H]1CC[C@H](NC(=O)c2ccc(-n3cncn3)cc2)CC1)[C@H]1CCc2nc(N)sc2C1
B: CCCN(CC[C@H]1CC[C@H](NS(=O)(=O)c2ccc(C(C)(C)C)cc2)CC1)[C@H]1CCc2nc(N)sc2C1
Ask: // compare: A vs B , metric pKi, want the smaller The response must carry the label of the picked entry.
Result: A

a: CCCN(CC[C@H]1CC[C@H](NS(=O)(=O)c2ccccc2Cl)CC1)[C@H]1CCc2nc(N)sc2C1
b: CCCN(CC[C@H]1CC[C@H](NC(=O)/C=C/c2ccc(F)cc2)CC1)[C@H]1CCc2nc(N)sc2C1
Ask: // compare: a vs b , metric pKi, want the smaller The response must carry the label of the picked entry.
Result: a

----------
As an illustration, consider measured Ki for compounds on D(3) dopamine receptor (Rattus norvegicus).
Sequence (P19020 whole entry): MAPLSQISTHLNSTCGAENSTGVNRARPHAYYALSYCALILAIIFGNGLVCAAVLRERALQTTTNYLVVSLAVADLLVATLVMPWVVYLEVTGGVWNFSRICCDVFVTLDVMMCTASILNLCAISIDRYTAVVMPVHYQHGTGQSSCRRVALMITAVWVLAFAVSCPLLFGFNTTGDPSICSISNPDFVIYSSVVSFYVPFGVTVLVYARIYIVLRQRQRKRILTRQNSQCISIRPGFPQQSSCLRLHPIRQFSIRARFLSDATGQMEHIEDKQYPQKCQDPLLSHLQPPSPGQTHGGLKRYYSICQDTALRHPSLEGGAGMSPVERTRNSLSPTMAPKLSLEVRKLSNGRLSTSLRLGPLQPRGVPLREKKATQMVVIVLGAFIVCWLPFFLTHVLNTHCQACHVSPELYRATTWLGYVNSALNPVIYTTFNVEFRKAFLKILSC
Parameter measured: Ki (nM)

INSERT INTO results (smiles_repr, measure_unit, endpoint_value) VALUES
  ('CCCN(CC[C@H]1CC[C@H](NS(=O)(=O)c2ccc(Cl)nc2)CC1)[C@H]1CCc2nc(N)sc2C1', 'nM', 0.63);

I: CCCN(CC[C@H]1CC[C@H](NC(=O)c2cccc3ncccc23)CC1)[C@H]1CCc2nc(N)sc2C1
II: CCCN(CC[C@H]1CC[C@H](NS(=O)(=O)c2cccc(C)c2)CC1)[C@H]1CCc2nc(N)sc2C1
III: CCCN(CC[C@H]1CC[C@H](NS(=O)(=O)c2ccc(-c3ccccc3)cc2)CC1)[C@H]1CCc2nc(N)sc2C1
Ask: Please put the entries in order of rising Ki. Returns: the labels arranged in the requested order.
Result: II, I, III
(II: 0.89 nM, I: 1.6 nM, III: 41 nM)
